molecular target: T1, COVID S1 RBM Fc fusion (Antigen 2) (SARS-CoV-2, UniProt P0DTC2 437-508); test: phage ELISA
T1 construct: domain: RBM
For each of the binders below, state its specificity ELISA, percent binding relative to Acro S1.
Numbers only, in %.

[[record]]
binder = "SARS-CoV-2 variant 1-32 (antibody, V domains shown) VH: EVQLLESGGGLVQPGGSLRLSCAASGFTFSSYAMYWVRQAPGKGLEWVSAISGSGGSTFYADSVKGRFTISRDNSKNTLYLQMNSLRAEDTAVYYCTRPPYGDYGDYWGQGTLVTVSS VL: QSALTQPASVSGSPGQSITISCTGTSSDVGGYNLVSWYQQHPGKAPKLMIYEGNKRPSGVSNRFSGSKSGNTASLTISGLQAEDEADYYCCSYAGSSTFPVVFGGGTKLTVL"
endpoint_result = 9.5


Per the records, this binder ( SARS-CoV-2 variant 1-5 (antibody, V domains shown) VH: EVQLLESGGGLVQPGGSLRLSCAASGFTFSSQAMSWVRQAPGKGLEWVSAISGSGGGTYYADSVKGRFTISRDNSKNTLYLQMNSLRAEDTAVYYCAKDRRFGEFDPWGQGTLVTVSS VL: QSALTQPASVSGSPGQSITISCTGTSSGVGSYNLVSWYQQHPGKAPKLMIYEASKRPSGVSNRFSGSKSGNTASLTISGLQAEDEADYYCCSYAGSYTFAVFGGGTKLTVL ) has specificity ELISA, percent binding relative to Acro S1 equal to 92
